- SYSTEM TESTED: P2Y6 receptor (Homo sapiens)
- Sequence (Q15077 whole entry): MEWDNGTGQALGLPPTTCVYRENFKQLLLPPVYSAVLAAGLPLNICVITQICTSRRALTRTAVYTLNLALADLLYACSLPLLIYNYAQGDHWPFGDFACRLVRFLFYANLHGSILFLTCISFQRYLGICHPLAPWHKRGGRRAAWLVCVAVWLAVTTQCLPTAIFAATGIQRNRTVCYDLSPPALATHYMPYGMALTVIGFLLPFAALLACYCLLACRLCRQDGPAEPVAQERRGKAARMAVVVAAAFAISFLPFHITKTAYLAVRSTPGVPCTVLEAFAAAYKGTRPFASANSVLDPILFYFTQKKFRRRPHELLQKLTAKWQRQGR
ASSAY ENDPOINT: IC50

Query block: Give the measured IC50 of S=C=Nc1cccc(NC(=S)NCCCCNC(=S)Nc2cccc(N=C=S)c2)c1 [MRS2578] .
Result block: 437 nM

* * *

Known pEC50 of a selection of compounds
- SYSTEM TESTED: P2Y2 receptor (Homo sapiens, UniProt P41231)
- Construct: native endogenous receptor in primary human adipose-derived mesenchymal stromal cells (female donors)
- Sequence (P41231 whole entry): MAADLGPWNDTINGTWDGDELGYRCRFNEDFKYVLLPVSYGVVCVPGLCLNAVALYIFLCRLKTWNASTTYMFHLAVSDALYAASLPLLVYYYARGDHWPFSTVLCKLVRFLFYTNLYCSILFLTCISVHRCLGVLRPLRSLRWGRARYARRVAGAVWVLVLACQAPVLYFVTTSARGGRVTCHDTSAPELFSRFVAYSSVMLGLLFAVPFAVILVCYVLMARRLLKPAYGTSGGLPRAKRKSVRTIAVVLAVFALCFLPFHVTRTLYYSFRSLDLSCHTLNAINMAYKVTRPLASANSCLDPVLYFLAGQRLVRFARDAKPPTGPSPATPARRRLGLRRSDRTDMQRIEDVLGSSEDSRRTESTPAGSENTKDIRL
- PROTOCOL SUMMARY: Fura-2 intracellular calcium, FlexStation, native AD-MSCs
- CONDITION INFO: agonist; peak calcium response; […] °C, pH […] extracellular Ca2+; receptor assigned by antagonist
# reply with the number alone; pEC50 is -log10 of concentration in mol/L

- COMPOUND: "Nc1ncnc2c1ncn2[C@@H]1O[C@H](COP(=O)(O)OP(=O)(O)OP(=O)(O)O)[C@@H](O)[C@H]1O [ATP]"
  pEC50: 5.65

Field: next compound
Query block: Need pEC50, item O=c1ccn([C@@H]2O[C@H](COP(=O)(O)OP(=O)(O)OP(=O)(O)O)[C@@H](O)[C@H]2O)c(=O)[nH]1 [UTP]
Result block: 5.49
